target: Fc-fusion protein of human PSMA (hPSMA-Fc) (Homo sapiens, UniProt Q04609); construct: purchased Acro Biosystems PSA-H5264; test: Surface plasmon resonance assay (Biacore T200, single cycle kinetic); format: binding; settings: PSMA SPR assay, category; read-out: pKD CAT (converted)
Sequence (Q04609 44-750 limits assumed): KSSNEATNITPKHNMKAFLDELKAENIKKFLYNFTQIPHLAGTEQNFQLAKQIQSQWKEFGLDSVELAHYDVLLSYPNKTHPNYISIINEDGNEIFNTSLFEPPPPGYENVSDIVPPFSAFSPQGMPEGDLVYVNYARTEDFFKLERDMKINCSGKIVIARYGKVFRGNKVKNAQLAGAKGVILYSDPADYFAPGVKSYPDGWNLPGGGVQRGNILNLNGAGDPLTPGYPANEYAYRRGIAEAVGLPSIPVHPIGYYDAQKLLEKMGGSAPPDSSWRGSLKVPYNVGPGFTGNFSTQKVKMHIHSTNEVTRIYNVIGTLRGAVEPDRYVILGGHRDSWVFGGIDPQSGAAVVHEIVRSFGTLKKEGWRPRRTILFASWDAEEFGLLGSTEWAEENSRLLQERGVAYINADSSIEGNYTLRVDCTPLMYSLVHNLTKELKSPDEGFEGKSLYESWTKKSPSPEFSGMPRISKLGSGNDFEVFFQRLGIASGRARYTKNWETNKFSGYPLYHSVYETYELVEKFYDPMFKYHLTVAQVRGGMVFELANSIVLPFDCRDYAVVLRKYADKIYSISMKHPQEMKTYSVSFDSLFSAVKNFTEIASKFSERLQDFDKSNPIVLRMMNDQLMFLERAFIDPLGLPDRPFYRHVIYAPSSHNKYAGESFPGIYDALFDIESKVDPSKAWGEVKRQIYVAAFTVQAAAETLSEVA
Bridge positions count the residues as written; N and C are the ends. Square brackets hold non-standard residues; d marks the D form. Side chains are listed from the residue outwards. Peptide text beside a SMILES is read from it. * marks the point of attachment. DOTA = O=C(O)CN1CCN(CC(=O)O)CCN(CC(=O)*)CCN(CC(=O)O)CC1; Cit = NC(=O)NCCC[C@H](N)C(=O)O; Tle = CC(C)(C)[C@H](N)C(=O)O; Aib = CC(C)(N)C(=O)O; Ahx = NCCCCCC(=O)O
MEASURED METRIC: Kd

- COMPOUND: "CC(=O)N[C@H](C(=O)NC(C)(C)C(=O)N[C@@H](Cc1ccccc1)C(=O)N[C@H]1CSSC[C@@H](C(=O)N[C@H](C(=O)N[C@H](C(N)=O)[C@@H](C)O)C(C)(C)C)NC(=O)[C@H](CC(N)=O)NC(=O)[C@H](CCCCNC(=O)CCCCCNC(=O)CN2CCN(CC(=O)O)CCN(CC(=O)O)CCN(CC(=O)O)CC2)NC(=O)[C@H](CCCNC(N)=O)NC(=O)[C@H](CCCCN)NC1=O)[C@@H](C)O [PSM-0582] (Ac-T[Aib]FCK[Cit]K([Ahx-DOTA])NC[Tle]T-NH2; disulfide 4-9)"
  MEASURED METRIC: "Kd"
  MEASURED RESULT: "< 12.6 nM"

----------
target: PSMA-expressing C4-2 cells (Homo sapiens); construct: PSMA-expressing C4-2 cells (ATCC, Cat. No. CRL-3314) were cultured in RPMI-1640; host or cells: C4-2 cells; test: FACS binding assay (competition with 50 nM PSM-0183); settings: FACS binding, C4-2 cells, competition with 50 nM PSM-0183; category; read-out: pIC50 [C4-2] CAT (converted)
Sequence (Q04609 whole entry): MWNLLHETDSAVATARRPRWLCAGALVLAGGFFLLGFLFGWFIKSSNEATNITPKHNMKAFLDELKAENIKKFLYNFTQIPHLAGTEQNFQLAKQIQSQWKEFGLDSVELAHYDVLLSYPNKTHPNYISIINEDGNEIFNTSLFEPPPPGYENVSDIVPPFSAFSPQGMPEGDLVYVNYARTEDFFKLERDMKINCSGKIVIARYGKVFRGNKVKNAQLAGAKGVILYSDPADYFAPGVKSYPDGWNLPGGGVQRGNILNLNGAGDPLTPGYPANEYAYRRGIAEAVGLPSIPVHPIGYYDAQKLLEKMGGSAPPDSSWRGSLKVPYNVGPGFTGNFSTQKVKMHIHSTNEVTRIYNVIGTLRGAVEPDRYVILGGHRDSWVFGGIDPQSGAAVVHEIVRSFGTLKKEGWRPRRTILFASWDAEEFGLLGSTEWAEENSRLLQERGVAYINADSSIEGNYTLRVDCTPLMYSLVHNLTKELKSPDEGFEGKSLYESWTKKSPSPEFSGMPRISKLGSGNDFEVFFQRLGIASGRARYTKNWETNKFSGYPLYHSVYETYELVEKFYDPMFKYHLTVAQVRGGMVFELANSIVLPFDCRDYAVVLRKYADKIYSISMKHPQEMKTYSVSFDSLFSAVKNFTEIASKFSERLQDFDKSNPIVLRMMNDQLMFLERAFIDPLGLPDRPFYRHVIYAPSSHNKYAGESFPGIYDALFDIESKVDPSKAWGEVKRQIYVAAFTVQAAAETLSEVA
Numbered stars: 1 amine (or outer) side, 2 acyl side, 3 side chain; on linkers, the order of the positions; unused ones are H or OH. Bridge positions count the residues as written; N and C are the ends. Square brackets hold non-standard residues; d marks the D form. Peptide text beside a SMILES is read from it. * marks the point of attachment. DOTA = O=C(O)CN1CCN(CC(=O)O)CCN(CC(=O)*)CCN(CC(=O)O)CC1; Phe(4-Cl) = N[C@@H](Cc1ccc(Cl)cc1)C(=O)O; Arg(Me) = CNC(=N)NCCC[C@H](N)C(=O)O; X1 = O=C(CC1CCN([*:1])CC1)[*:2]; Lys(Me) = CNCCCC[C@H](N)C(=O)O; Tle = CC(C)(C)[C@H](N)C(=O)O; Aib = CC(C)(N)C(=O)O; Sar = CNCC(=O)O

- COMPOUND: "CNCCCC[C@@H]1NC(=O)[C@@H](NC(=O)[C@H](Cc2ccc(Cl)cc2)NC(=O)C(C)(C)NC(=O)[C@@H](NC(=O)CC2CCN(C(=O)CN3CCN(CC(=O)O)CCN(CC(=O)O)CCN(CC(=O)O)CC3)CC2)[C@@H](C)O)CSSC[C@@H](C(=O)N[C@H](C(=O)N[C@H](C(N)=O)[C@@H](C)O)C(C)(C)C)NC(=O)[C@H](CC(N)=O)NC(=O)C(C)(C)NC(=O)[C@H](CCCNC(=N)NC)NC1=O [PSM-0194] ({DOTA}-[X1]T[Aib][Phe(4-Cl)]C[Lys(Me)][Arg(Me)][Aib]NC[Tle]T-NH2; disulfide 5-10)"
  IC50: "< 200 nM"
- COMPOUND: "CC(=O)N[C@H](C(=O)NC(C)(C)C(=O)N[C@@H](Cc1ccccc1)C(=O)N[C@H]1CSSC[C@@H](C(=O)N[C@H](C(=O)N[C@H](C(N)=O)[C@@H](C)O)C(C)(C)C)NC(=O)[C@H](CC(N)=O)NC(=O)CN(C)C(=O)[C@H](CCCNC(=N)N)NC(=O)[C@H](CCCCN)NC1=O)[C@@H](C)O [PSM-0232] (Ac-T[Aib]FCKR[Sar]NC[Tle]T-NH2; disulfide 4-9)"
  IC50: "< 200 nM"

Values from patent US20260083865A1
